// reported cell count per item
# assay: viability loss with induced miR-34 in A549 – imaging, A549 dox-inducible miR-34, nuclei and caspase counts, primary screen (AID 1347080); note: test concentration not given here
# run_conditions: A549 miR-34 inducible, Hoechst nuclei count, 48 h; measured here: total cells with miR-34 induction; stronger effect = lower value
Reply: number alone, nothing else.

CC(=O)O[C@H]1CC2(C)[C@@H](C[C@@H](O)[C@H]3[C@@]4(C)CC[C@@H](O)[C@@H](C)[C@@H]4CC[C@@]32C)C1=C(CCC=C(C)C)C(=O)O (stereo partly specified); 9740
O=c1c2nccnc2ncn1Cc1scnc1-c1ccccc1; 8870
CC(=O)SC1CC2=CC(=O)CC[C@]2(C)[C@@H]2CC[C@@]3(C)[C@@H](CC[C@]34CCC(=O)O4)[C@H]12 (stereo partly specified); 7310
N#C/C(=C\c1ccc(O)c(O)c1)C(=O)NCCc1ccccc1; 7900
C=C1C(c2ccc(C)cc2)=CCc2cc(C)cc(C)c21; 1920

Let us examine a further case.
Could you tell me which cell count is on file for CCCCCC(=O)/C=C/C=C\CCCCCCCC(=O)O ?
5630
